Item-by-item account of inhibition
- Assay Summary: gst-4 reporter inhibition in live C. elegans – whole organism, uHTS, GFP/RFP fluorescence ratio, strain VP596, SKN-1 inhibitor project, primary screen (AID 624304)
- Setup Conditions: C. elegans VP596 Pgst-4::GFP/RFP ratio, acrylamide-induced, 24 h; at 21.8 µM; active compounds read high
Among all 360,000 compounds or so, about 1,800 (0.5%) were called active. For the sample, actives were picked, then their nearest neighbours and some compounds at random.
Record the value in %, omitting the unit from your answer.

Some entries whose results are on file:
>>> print(df.to_string())
                                   compound  readout_value
0            Clc1ccc(Cc2nnc(-c3cccs3)o2)cc1          -1.16
1  COCCN(C(=S)Nc1cccc(Cl)c1C)C(C)c1ccco1 (configuration not stated)           2.25
2  CC(C)Sc1nc(N)nc2c1ncn2C1OC(CO)C(O)C1O (configuration not stated)           8.48

// moving on: another record for inhibition
Noted for COC(=O)Nc1sc2nc(C)cc(C)c2c1-n1cccc1 : its inhibition reads 6.78

----------
Item-by-item account of inhibition
- Assay Summary: gst-4 reporter inhibition in live C. elegans – whole organism, uHTS, GFP/RFP fluorescence ratio, strain VP596, SKN-1 inhibitor project, primary screen (AID 624304)
- Setup Conditions: C. elegans VP596 Pgst-4::GFP/RFP ratio, acrylamide-induced, 24 h; at 21.8 µM; active compounds read high
Screen size: about 360,000 compounds; about 1,800 (0.5%) were called active. Shown is part of a subset that was picked to be rich in actives.
Record the value in %, omitting the unit from your answer.

Some entries whose results are on file:
>>> df
                                   compound  output_unit  readout_value
0             CCc1ccc2oc(-c3ccc(N)cc3)nc2c1            %           39.8
1   CCCCNC(=O)c1onc(CSc2cccc(OC)c2)c1C(=O)O            %          -12.1
2   O=[N+]([O-])c1ccc2oc(-c3cccc(O)c3)nc2c1            %             17
3  CCOC(=O)N1CCN(C(=O)c2ccc(CN(c3ccc(C)c(C)c3)S(C)(=O)=O)cc2)CC1            %           6.59
4  COc1ccc(C(=O)NC(C)Cn2nc(C)cc2C)cc1OC1CCN(C(C)=O)CC1 (stereo unspecified)            %           8.35

// moving on: another record for inhibition
Noted for CN(Cc1ccccc1F)c1cc2c(c3c1ccn3C)C1CCC2O1 (stereo unspecified) : its inhibition reads 6.79

----------
- Assay Summary: gst-4 reporter inhibition in live C. elegans – whole organism, uHTS, GFP/RFP fluorescence ratio, strain VP596, SKN-1 inhibitor project, primary screen (AID 624304)
- Setup Conditions: C. elegans VP596 Pgst-4::GFP/RFP ratio, acrylamide-induced, 24 h; at 21.8 µM
Out of some 360,000 compounds screened, about 1,800 (0.5%) were called active.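 How the source made its calls: active means interference check ratio from 0.5 to 1.5 plus GFP to RFP signal ratio inhibition reaching or exceeding a fixed threshold (cut at about 30% in these data, passing the limit was not always enough); inactive means the rest.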 The sample holds actives, similar compounds and a random draw of the others, so the mix is not that of the screen.
Just give me one of these, please: active, inactive

**Query** Recorded test call requested for Cn1c(SCC(=O)Nc2ccc(Br)cc2F)nnc1-c1ccco1
**Result** inactive

**Query** Recorded test call requested for COCCn1cnc2c1c(=O)n(CC(=O)NN)c(=O)n2Cc1ccccc1
**Result** inactive

**Query** Recorded test call requested for NC(=O)C1(Nc2ccc(-c3ccccc3)cc2)CCCC1
**Result** inactive

**Query** Recorded test call requested for CC(=O)N1CCN(C(=O)C2(NC(=O)Nc3ccc(C)cc3)CCCCC2)CC1
**Result** inactive

**Query** Recorded test call requested for Cc1oc(-c2cccc(Cl)c2)[n+]([O-])c1C
**Result** inactive

**Query** Recorded test call requested for O=C(NCCCN1CCOCC1)C1CCCN(S(=O)(=O)N2CCCCC2)C1 (centres undefined)
**Result** inactive

**Query** Recorded test call requested for O=C(c1ccc(=O)oc1)N1CCC(C(O)(c2ccccc2)c2ccccc2)CC1
**Result** inactive

**Query** Recorded test call requested for CCCc1cc(=O)n2[nH]c(SCc3ccccc3)nc2n1
**Result** inactive

**Query** Recorded test call requested for Cn1nc(C(C)(C)C)c([N+](=O)[O-])c1C(N)=O
**Result** inactive

**Query** Recorded test call requested for Cc1cc(C)c2nc(-c3cccnc3)cc(C(=O)Nc3ccc(S(=O)(=O)Nc4onc(C)c4C)cc3)c2c1
**Result** inactive

**Query** Recorded test call requested for Cc1ccc(C)c(S(=O)(=O)N2CC(=O)Nc3ccccc32)c1
**Result** inactive

**Query** Recorded test call requested for Cn1c(=NC(=O)C2CC2)sc2cc(F)cc(F)c21
**Result** active

**Query** Recorded test call requested for Cc1ccc(C(NC(=O)C2CCN(CCOc3ccc(Cl)cc3Cl)CC2)c2ccccn2)cc1 (centres undefined)
**Result** inactive

**Query** Recorded test call requested for O=C(O)c1cccc(S(=O)(=O)N2CC=C(c3ccccc3)CC2)c1
**Result** inactive

**Query** Recorded test call requested for Clc1ccc(-c2cc(-c3ccccn3)on2)c(Cl)c1
**Result** active

**Query** Recorded test call requested for Cn1c(=O)c2c(ncn2CC(COCc2ccccc2Cl)OCc2ccccc2Cl)n(C)c1=O (centres undefined)
**Result** inactive

**Query** Recorded test call requested for COc1ccc(N2CCN(C(=O)C3CCN(S(=O)(=O)c4ccc(C)cc4)CC3)CC2)cc1
**Result** inactive

----------
- Assay Summary: gst-4 reporter inhibition in live C. elegans – whole organism, uHTS, GFP/RFP fluorescence ratio, strain VP596, SKN-1 inhibitor project, primary screen (AID 624304)
- Setup Conditions: C. elegans VP596 Pgst-4::GFP/RFP ratio, acrylamide-induced, 24 h; at 21.8 µM; active compounds read high
About 1,800 (0.5%) of roughly 360,000 compounds were called active. The list comes from a sample in which actives are over-represented; it also holds close analogues and randomly drawn compounds.
Item-by-item account of inhibition

Some entries whose results are on file:
>>> df
                                   compound  value_type     readout_value
0  Cc1cccc(N2CCN(c3ccc(C(N)=O)cc3[N+](=O)[O-])CC2)c1C  inhibition  6.19% (inactive)
1  Cc1cc(OCc2cc(C(=O)NCc3cc(C(C)C)no3)no2)cc(C)c1Cl  inhibition  1.98% (inactive)

Noted for CCOC(=O)c1cc(C)nc(S(C)(=O)=O)c1C#N : its inhibition reads 13.5% (inactive)

Noted for COc1cccc(CNc2nc(NCc3ccccc3OC)nc3ccsc23)c1 : its inhibition reads 43.2% (active)

Noted for O=C(NCc1ccco1)C1(c2ccc(Cl)cc2)CCCC1 : its inhibition reads -1.05% (inactive)

Noted for CC(Cc1cccs1)N(Cc1ccc(Cl)cc1)C(=O)c1ccncc1 (stereo not drawn) : its inhibition reads 8.76% (inactive)

Noted for CC(C)C[C@@H](COc1ccccc1)N1CCN(CC(C)C)CCC1=O : its inhibition reads 12.3% (inactive)

Noted for CCNc1nc(NC(C)C)nc(N2CC(=O)N(CC(=O)OCC)C2=N)n1 : its inhibition reads 3.01% (inactive)

Noted for O=C(Nc1cc(F)ccc1F)c1ccc2c(=O)n3c(nc2c1)CCC3 : its inhibition reads -4.08% (inactive)

Noted for CCOC(=O)c1c(C(C#N)C#N)cc(C)nc1C : its inhibition reads -3.86% (inactive)

Noted for COc1cccc(NC(=S)C(C#N)=C2N(C)c3ccccc3N2C)c1 : its inhibition reads -3.75% (inactive)

Noted for O=C(CSc1nnnn1-c1ccccc1)NCc1ccco1 : its inhibition reads -15% (inactive)

Noted for COc1cccc(CNc2nc(NCc3cccs3)nc3ccsc23)c1 : its inhibition reads 6.96% (inactive)

----------
- Assay Summary: gst-4 reporter inhibition in live C. elegans – whole organism, uHTS, GFP/RFP fluorescence ratio, strain VP596, SKN-1 inhibitor project, primary screen (AID 624304)
- Setup Conditions: C. elegans VP596 Pgst-4::GFP/RFP ratio, acrylamide-induced, 24 h; at 21.8 µM
Among all 360,000 compounds or so, about 1,800 (0.5%) were called active.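 How the source made its calls: active means interference check ratio from 0.5 to 1.5 plus GFP to RFP signal ratio inhibition reaching or exceeding a fixed threshold (cut at about 30% in these data, passing the limit was not always enough); inactive means the rest.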 Many of the other results were omitted from the sample, so actives are more common in it than they were.
Just give me one of these, please: y (active), n (inactive)

// known answers, use as guide
>>> print(df.to_string())
                                   compound  category
0  O=C(CSc1cccc[n+]1[O-])c1ccc(-c2ccccc2)cc1         n
1  Cc1ccc(-c2ccc(CN3C(C(C)C)C(=O)N(Cc4cn(CCC5OCCO5)nn4)CCS3(=O)=O)cc2)cc1 (stereo not given)         n

**Query** Recorded test call requested for O=C1CC2(CCN(C(=O)COc3ccc(F)cc3)CC2)Oc2ccccc21
**Result** n

**Query** Recorded test call requested for CCC(=O)N1CCc2cc(S(=O)(=O)CCC(=O)N3CCN(c4ccccc4F)CC3)ccc21
**Result** n

**Query** Recorded test call requested for Oc1ccc(-c2nncn2-c2ccccc2)cc1
**Result** n

**Query** Recorded test call requested for O=C(Nc1nn(Cc2ccccc2F)cc1Br)c1cccs1
**Result** n

**Query** Recorded test call requested for O=C(NCCc1ccccc1)C1CCC(Cn2c(=O)c3ccccc3n(Cc3cccnc3)c2=O)CC1 (stereo not given)
**Result** n
